Each recorded value in this set is attributed to ChEMBL document CHEMBL5576086.

species on record: Homo sapiens; test: Inhibition of Anti-PLA2R IgG interaction with human recombinant PLA2 receptor at 10 uM by SPR analysis relative to control
TEST_READOUT: inhibition (%)
The figure you give is taken to be in %; do not add the unit.

Past entries and their recorded results:
# MOLECULE, TEST_READOUT, MEASURED_NUMBER
rows = [
    ("CC(C)=CCC[C@]1(C)C=Cc2c(O)c3c(c(CC=C(C)C)c2O1)O[C@]12C(=C[C@@H]4C[C@H]1C(C)(C)O[C@@]2(C/C=C(/C)C(=O)O)C4=O)C3=O", "inhibition", 13.4),
    ("CC(C)=CCc1c(O)c(CC=C(C)C)c2oc3c(O)ccc(O)c3c(=O)c2c1O", "inhibition", 12.2),
    ("CCCCCc1cc(O)c(C/C=C(\\C)CCC=C(C)C)c(O)c1", "inhibition", 9.7),
    ("CC(C)C[C@@H](c1c(O)c(C=O)c(O)c(C=O)c1O)[C@@]1(C)CC[C@H]2C1=C[C@H](C(C)(C)O)CC[C@H]2C", "inhibition", 11.3),
    ("CC(=O)C[C@]1(O)C(=O)C2=C(OC[C@@H]2C)c2ccc3c(C)cccc3c21", "inhibition", 10.1),
]

As a next step, examine the molecule that follows.
**Q:** // inhibition lookup, key: CC(=O)O[C@H]1C[C@]2(O)C(COC(=O)C(OC(=O)CC(C)C)C(C)C)=CO[C@@H](OC(=O)CC(C)C)[C@@H]2[C@@]12CO2 (stereo partly specified)
**A:** 7.7
